Where do the numbers come from? From BindingDB's records for doi:10.1016/j.bmc.2019.01.035.

molecular target: Sigma non-opioid intracellular receptor 1 (Homo sapiens); assay: Displacement [3H]-Pentazocine from sigma 1 receptor (unknown origin) expressed in HEK cell membranes
Sequence (Q99720 whole entry): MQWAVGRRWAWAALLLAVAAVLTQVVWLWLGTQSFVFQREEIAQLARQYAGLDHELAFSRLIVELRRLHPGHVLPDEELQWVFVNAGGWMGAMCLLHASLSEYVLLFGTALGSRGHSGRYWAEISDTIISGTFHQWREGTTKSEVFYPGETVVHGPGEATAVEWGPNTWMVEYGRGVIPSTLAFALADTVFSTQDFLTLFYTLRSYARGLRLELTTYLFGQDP
Property measured: pKi
Hey, just a heads up that pKi is the negative log base 10 of the concentration in molar.

Entry "O=C(CCCN1CCCN(c2ccccn2)CC1)c1ccc(F)cc1" ; assay system Sigma non-opioid intracellular receptor 1 (Homo sapiens); pKi recorded at 7.20
